biological target: T1, PKC-βII (purified isoform) (Homo sapiens (Human), UniProt P05771 2-621); assay: competitive ELISA, coated purified PKC-βII, vs anti-PKC βII (SC-210); PRE 100 µM
T1 construct: also called PKC-beta II; PKC beta 2
T1 sequence (P05771 other isoform, or with tags, fused parts or gaps limits assumed): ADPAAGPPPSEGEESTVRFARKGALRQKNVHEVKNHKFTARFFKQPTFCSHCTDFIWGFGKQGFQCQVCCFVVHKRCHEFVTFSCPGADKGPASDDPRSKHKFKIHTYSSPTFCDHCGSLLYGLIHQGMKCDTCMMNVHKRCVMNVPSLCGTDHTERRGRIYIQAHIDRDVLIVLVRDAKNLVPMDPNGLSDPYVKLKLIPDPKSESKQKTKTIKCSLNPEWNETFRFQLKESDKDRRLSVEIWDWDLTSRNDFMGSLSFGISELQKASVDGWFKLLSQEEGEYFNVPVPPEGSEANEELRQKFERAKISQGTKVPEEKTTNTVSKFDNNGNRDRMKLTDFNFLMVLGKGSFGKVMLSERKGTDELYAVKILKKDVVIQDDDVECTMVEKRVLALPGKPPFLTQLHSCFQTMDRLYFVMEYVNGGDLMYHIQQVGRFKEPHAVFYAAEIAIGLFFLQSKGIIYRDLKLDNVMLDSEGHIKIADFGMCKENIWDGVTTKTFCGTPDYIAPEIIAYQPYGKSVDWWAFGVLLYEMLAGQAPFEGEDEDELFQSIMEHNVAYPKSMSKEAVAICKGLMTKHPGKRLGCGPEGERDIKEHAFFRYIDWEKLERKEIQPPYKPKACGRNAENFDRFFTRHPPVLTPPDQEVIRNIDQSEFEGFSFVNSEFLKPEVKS
measurement_name: relative binding capacity (100-%n, DMSO subtracted)
Your reply should be a number followed by the unit it is expressed in.

// below: answered binders
binder: Ac-ISIGILNQADK-NH2 (also called peptide PRE 10) [PRE 10]
reported_result: 0%
--
binder: Ac-RDAQNLIGISI-NH2 (also called peptide PRE 11) [PRE 11]
reported_result: 11%

Let's switch to this binder now.
Exercise: Would you mind telling me what relative binding capacity (100-%n, DMSO subtracted) value was observed for RRKKGGKDFVVKR (also called peptide PRE 1; peptide recognition element 1) [PRE 1] ?
Solution: 0%

Numbers sourced from patent US20110039770A1.
